Biological target: human Programmed Death-1 (PD-1) expressed on the cell surface (human, UniProt Q15116 25-288)
Sequence (Q15116 25-288): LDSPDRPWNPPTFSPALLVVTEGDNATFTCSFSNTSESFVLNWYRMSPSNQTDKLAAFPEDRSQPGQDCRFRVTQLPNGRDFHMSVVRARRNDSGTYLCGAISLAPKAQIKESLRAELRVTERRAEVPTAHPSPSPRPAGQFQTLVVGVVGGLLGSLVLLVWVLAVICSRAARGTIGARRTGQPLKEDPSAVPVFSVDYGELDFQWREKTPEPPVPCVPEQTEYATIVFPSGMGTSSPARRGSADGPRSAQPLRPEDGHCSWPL
Test: cell-based or functional assay
metric: Fold Induction IFN-γ (relative to isotype control; NSCLC biopsy cells, 20 µg/mL) (fold)

{"binder": "244C8-2 (100244_C8_HC1 + 100245_C8_LC3) (antibody, V domains shown) VH: QVQLVQSGAEVKKPGASVKVSCKASGYTFTSYWMHWVRQAPGQGLEWMGMIDPSNSETSLNQKFQGRVTMTVDKSTNTVYMELSSLRSEDTAVYYCARSRGNYAYEMDYWGQGTLVTVSS VL: DIVLTQSPGTLSLSPGEKVTLSCRASSSVSSNYLYWYQQKPGQAPRLVIYSTSNLATGIPDRFSGSGSGTDYTLTISRLEPEDFAVYFCHQWSSYPPTFGQGTKVEIK", "observed value": 7.76}
